system.name: Perilipin-5 (Homo sapiens) + 1-acylglycerol-3-phosphate O-acyltransferase ABHD5 (Homo sapiens) (UniProt Q00G26+Q8WTS1)
Sequence (Q00G26 whole entry, looked up): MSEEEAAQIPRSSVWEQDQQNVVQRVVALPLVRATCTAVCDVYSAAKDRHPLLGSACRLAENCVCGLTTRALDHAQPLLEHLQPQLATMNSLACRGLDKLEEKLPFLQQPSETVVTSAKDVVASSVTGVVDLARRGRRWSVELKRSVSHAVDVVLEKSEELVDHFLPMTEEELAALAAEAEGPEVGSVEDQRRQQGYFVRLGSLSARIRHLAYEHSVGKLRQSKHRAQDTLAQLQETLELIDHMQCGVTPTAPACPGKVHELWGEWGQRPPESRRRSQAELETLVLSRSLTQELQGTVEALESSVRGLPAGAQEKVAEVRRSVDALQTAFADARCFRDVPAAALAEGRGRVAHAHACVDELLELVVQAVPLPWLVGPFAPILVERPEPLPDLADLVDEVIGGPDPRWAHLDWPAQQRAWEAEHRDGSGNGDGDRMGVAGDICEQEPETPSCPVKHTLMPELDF
Sequence (Q8WTS1 whole entry, looked up): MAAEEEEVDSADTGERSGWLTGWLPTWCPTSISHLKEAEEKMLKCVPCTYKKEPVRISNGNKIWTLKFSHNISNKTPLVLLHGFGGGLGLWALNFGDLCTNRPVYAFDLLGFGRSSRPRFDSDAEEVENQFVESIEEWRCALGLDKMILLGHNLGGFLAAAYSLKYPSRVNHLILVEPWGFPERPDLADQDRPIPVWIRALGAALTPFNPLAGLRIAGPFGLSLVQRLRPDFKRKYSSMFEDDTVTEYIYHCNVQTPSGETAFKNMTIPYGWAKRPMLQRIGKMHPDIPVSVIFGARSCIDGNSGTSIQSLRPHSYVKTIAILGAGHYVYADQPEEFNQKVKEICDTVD
measurement.protocol: ABHD5-PLIN5 interaction inhibitors, primary screen, cell lysate, split luciferase complementation, luminescence (AID 602281);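 note: 0% = DMSO only wells and the 100% control is not disclosed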
particulars: Split G. princeps luciferase complementation, 4 h, at 4 µM, stronger effect = higher value
Screen size: about 360,000 compounds; about 2,900 (0.81%) were called active. The full list was thinned out, with actives kept by preference.
Reported inhibition values for the following molecules.

[
  {
    "molecule": "O=C(Nc1ccccc1Cl)NC1(C(=O)N2CCOCC2)CCCCC1",
    "inhibition": "-0.52% (inactive)"
  },
  {
    "molecule": "N#Cc1ccc(C(C(=O)NCc2ccccc2)n2c(=O)c(-c3ccco3)nc3ccccc32)cc1 (stereo not given)",
    "inhibition": "76.5% (active)"
  },
  {
    "molecule": "COC(=O)[C@@]1(Cc2ccc(F)cc2)[C@H]2c3cc(C(=O)N4CCCC4)n(Cc4ccc(OC(F)(F)F)cc4)c3C[C@H]2CN1C(=O)c1ccccc1",
    "inhibition": "22.3% (active)"
  },
  {
    "molecule": "CCCCN(C(C)=O)c1ccc2c(c1)C1CC2CCN1Cc1ccccc1 (stereo not given)",
    "inhibition": "-6.18% (inactive)"
  },
  {
    "molecule": "O=C(NCc1ccccc1Cl)c1csc([C@@H]2O[C@H](CO)[C@@H](O)[C@H]2O)n1",
    "inhibition": "-7.69% (inactive)"
  },
  {
    "molecule": "Cc1cccc(C)c1NC(=O)C(c1ccc(C(F)(F)F)cc1)n1c(=O)c(-c2ccco2)nc2ccccc21 (stereo not given)",
    "inhibition": "74.7% (active)"
  }
]

Field: next molecule
Input "COC(=O)/C=C\C(=O)Nc1cccc([N+](=O)[O-])c1" . Output inhibition: 41% (active)

---

system.name: Perilipin-5 (Homo sapiens) + 1-acylglycerol-3-phosphate O-acyltransferase ABHD5 (Homo sapiens) (UniProt Q00G26+Q8WTS1)
measurement.protocol: ABHD5-PLIN5 interaction inhibitors, primary screen, cell lysate, split luciferase complementation, luminescence (AID 602281);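 note: 0% = DMSO only wells and the 100% control is not disclosed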
particulars: Split G. princeps luciferase complementation, 4 h, at 4 µM, stronger effect = higher value
The campaign covered roughly 360,000 compounds. About 2,900 (0.81%) were called active. Only a selection was taken, and actives are over-represented in it overall.
Collected inhibition values appear next to each entry.
The response must be a number in % with no trailing unit.

Solved entries (count: 10):
[
  {
    "molecule": "COc1cccc(C2CC(c3ccccc3)=NN2S(=O)(=O)c2ccccc2)c1OC (stereo not given)",
    "unit.of.measurement": "%",
    "observed.measurement": -7.74
  },
  {
    "molecule": "Cc1nc(-c2ccccc2)sc1C(=O)/C=C/c1ccccc1",
    "unit.of.measurement": "%",
    "observed.measurement": 36
  },
  {
    "molecule": "CC(=O)NC1=NN(C(C)=O)C(C)(CCS(=O)(=O)c2ccc(Cl)c(Cl)c2)S1 (stereo not given)",
    "unit.of.measurement": "%",
    "observed.measurement": 2.36
  },
  {
    "molecule": "O=C(Nc1nccs1)C1CCN(S(=O)(=O)c2ccc(Cl)c(C(F)(F)F)c2)CC1",
    "unit.of.measurement": "%",
    "observed.measurement": -4.59
  },
  {
    "molecule": "O=C(O)c1cccnc1NC1CCCC1",
    "unit.of.measurement": "%",
    "observed.measurement": 7.94
  },
  {
    "molecule": "O=C(CCCN1C(=O)C(c2ccccc2)Oc2cccnc21)Nc1ccccc1Br (stereo not given)",
    "unit.of.measurement": "%",
    "observed.measurement": 6.82
  },
  {
    "molecule": "COC(=O)C1(C)NC(c2ccc(F)cc2)C2C(=O)N(c3ccccc3)C(=O)C21 (stereo not given)",
    "unit.of.measurement": "%",
    "observed.measurement": -0.78
  },
  {
    "molecule": "CC(C)CN1CCC1(C)C(=O)Nc1ccc(OC(F)F)cc1 (stereo not given)",
    "unit.of.measurement": "%",
    "observed.measurement": -1.42
  },
  {
    "molecule": "CSc1nc(-c2ccccc2)nc(C(Cl)Cl)n1",
    "unit.of.measurement": "%",
    "observed.measurement": -6.27
  },
  {
    "molecule": "COC(=O)[C@@]1(Cc2ccc(F)cc2)[C@H]2c3cc(C(=O)N4CCCC4)n(C[C@H](O)CO)c3C[C@H]2CN1C(=O)c1ccccc1",
    "unit.of.measurement": "%",
    "observed.measurement": 6.42
  }
]

Sample "COC(=O)COc1cccc2c(=O)n(CC(=O)NCc3ccccc3)ccc12" ; inhibition observed: -4.9

Short answer for "CCc1ccc(C(=O)CSc2nnc(C)c(=O)[nH]2)cc1" : inhibition was -3.63

inhibition in this record for Cc1ccc(C2=NN(C(=O)CSc3nc(N)cc(N)n3)C(c3ccco3)C2)cc1 (stereo not given) : 12.7

---

system.name: Perilipin-5 (Homo sapiens) + 1-acylglycerol-3-phosphate O-acyltransferase ABHD5 (Homo sapiens) (UniProt Q00G26+Q8WTS1)
measurement.protocol: ABHD5-PLIN5 interaction inhibitors, primary screen, cell lysate, split luciferase complementation, luminescence (AID 602281);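 note: 0% = DMSO only wells and the 100% control is not disclosed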
particulars: Split G. princeps luciferase complementation, 4 h, at 4 µM, stronger effect = higher value
Among all 360,000 compounds or so, about 2,900 (0.81%) were called active. Shown is part of a subset that was picked to be rich in actives.
# inhibition annotations

[
  {
    "compound": "CC1CCCCC1NC(=O)CSc1nnc(-c2ccncc2)n1CCCN(C)C (stereo not given)",
    "inhibition": "3.79% (inactive)"
  },
  {
    "compound": "Cc1ccc(/C=C/C(=O)OCC(=O)NCc2ccc(Cl)cc2)o1",
    "inhibition": "5.48% (inactive)"
  },
  {
    "compound": "O=C(CN1C2CCC1CC(NC(=O)C1CC1)C2)NCc1ccccc1 (stereo not given)",
    "inhibition": "-2.07% (inactive)"
  }
]

Recorded result, "O=C(O)c1cc2ccccc2c(=O)s1" , inhibition: 10.5% (inactive)

Sure, the documented inhibition for "O=C1CC[C@@H](C(=O)N2CSC[C@@H]2C(=O)Nc2ccc(C(F)(F)F)cc2)N1" is -0.42% (inactive)

---

system.name: Perilipin-5 (Homo sapiens) + 1-acylglycerol-3-phosphate O-acyltransferase ABHD5 (Homo sapiens) (UniProt Q00G26+Q8WTS1)
measurement.protocol: ABHD5-PLIN5 interaction inhibitors, primary screen, cell lysate, split luciferase complementation, luminescence (AID 602281);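 note: 0% = DMSO only wells and the 100% control is not disclosed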
particulars: Split G. princeps luciferase complementation, 4 h, at 4 µM, stronger effect = higher value
In all, about 360,000 compounds went through this assay and about 2,900 (0.81%) were called active. Only a selection was taken, and actives are over-represented in it overall.
metric: inhibition (%)
Quick note: give the figure in %, leave out the unit.

[
  {
    "compound": "NC(=O)C(Cc1ccccc1)NC(=O)C12CC3CC(CC(C3)C1)C2 (stereo unspecified)",
    "inhibition, %": -7.59
  },
  {
    "compound": "CC(=O)N1CSCC1C(=O)O (stereo unspecified)",
    "inhibition, %": 3.52
  },
  {
    "compound": "COc1ccccc1NC(=O)COC(=O)Cc1ccc(S(=O)(=O)N2CCCCC2)s1",
    "inhibition, %": 0.2
  },
  {
    "compound": "Cc1ccc(C(=O)NCC(=O)OCC(=O)Nc2cccc(S(=O)(=O)N3CCCC3)c2)cc1C",
    "inhibition, %": -2.63
  },
  {
    "compound": "Cn1cc(S(=O)(=O)N2CCN(c3ccc(F)cc3)CC2)c(=O)n(C)c1=O",
    "inhibition, %": 2.58
  }
]

// inhibition lookup, compound = "Cc1ccc(S(=O)(=O)N[C@H](CO)C(C)C)cc1" , result: 2.76

---

system.name: Perilipin-5 (Homo sapiens) + 1-acylglycerol-3-phosphate O-acyltransferase ABHD5 (Homo sapiens) (UniProt Q00G26+Q8WTS1)
measurement.protocol: ABHD5-PLIN5 interaction inhibitors, primary screen, cell lysate, split luciferase complementation, luminescence (AID 602281);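 note: 0% = DMSO only wells and the 100% control is not disclosed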
particulars: Split G. princeps luciferase complementation, 4 h, at 4 µM, stronger effect = higher value
In all, about 360,000 compounds went through this assay and about 2,900 (0.81%) were called active. The sample as a whole holds a higher share of actives than the screen did.
Mark N for inhibition values under 10%, and Y for everything at or above.

Examples with answers:
[
  {
    "molecule": "Cc1csc(NC(=O)NC2(C(F)(F)F)Oc3ccccc3O2)n1",
    "answer.label": "Y"
  },
  {
    "molecule": "COc1ccc(/C(O)=C2/C(=O)C(=O)N(CCCN(C)C)C2c2ccccc2)cc1OC (configuration not stated)",
    "answer.label": "N"
  },
  {
    "molecule": "Cc1csc(NC(=O)C2CCN(S(=O)(=O)c3ccccc3)CC2)n1",
    "answer.label": "N"
  },
  {
    "molecule": "Cc1ccc(-c2ccc(CN3C(C(C)C)C(=O)N(Cc4cn(CCC5OCCCO5)nn4)CCS3(=O)=O)cc2)cc1 (configuration not stated)",
    "answer.label": "N"
  },
  {
    "molecule": "CC(=O)c1ccc(N=C2SCCCN2C(=O)C2CCCCC2)cc1",
    "answer.label": "N"
  },
  {
    "molecule": "NC(=O)c1ccccc1N=Cc1ccc2ccccc2c1",
    "answer.label": "N"
  }
]

(Q) Answer whether inhibition of "CCN(CC)CCNS(=O)(=O)c1ccc(/C=C/C(=O)O)cc1" is greater than or equal to 10%.
(A) N

(Q) // inclusive: inhibition at least 10%? input: "CCOC(=O)c1cccc(NC(=O)CCc2nnc3ccc(N4CCOCC4)nn23)c1"
(A) N

(Q) // inclusive: inhibition at least 10%? input: "O=C(Nc1nonc1-c1ccc(Cl)cc1)c1ccco1"
(A) N
